This listing pairs molecules with measured MIC80.
test system: Nakaseomyces glabratus; experiment: Antifungal activity against Clinical isolate Candida glabrata assessed as inhibition of visible growth; type: functional
Return type: number; implicit unit µg/mL.

Molecule | Reading Unit | MIC80
[2H]C([2H])([2H])N(Cc1ccc(-c2ccc(Cl)c(F)c2)cc1F)[C@H](C)[C@](O)(Cn1cncn1)c1ccc(F)cc1F | µg/mL | 0.025

Provide measured MIC80 value, entry: CN(Cc1ccc(-c2ccccc2Cl)cn1)CC(O)(Cn1cncn1)c1ccc(F)cc1F (stereo not drawn)
0.8

Read off the recorded MIC80 for CN(Cc1ccc(-c2ccc(OC(F)(F)F)cc2)nc1)CC(O)(Cn1cncn1)c1ccc(F)cc1F (stereo not drawn)
0.05

----------
assay: Tmax in Sprague-Dawley rat at 10 mg/kg, po by LC-MS/MS analysis; assay type: ADME, organism-based; conditions: in vivo
Value Kind: Tmax (h)
// note: answer is a bare numeric in h

Return Tmax (reported value) for this compound: `[2H]C([2H])([2H])N(Cc1ccc(-c2ccc(OC(F)(F)F)cc2)cc1)[C@H](C)[C@](O)(Cn1cncn1)c1ccc(F)cc1F`
2.67

----------
test: Tmax in Sprague-Dawley rat at 3 mg/kg, iv by LC-MS/MS analysis; type: ADME, organism-based; details: in vivo
Value Kind: Tmax (min)
# value in min; strip the unit string

Supply recorded Tmax for `[2H]C([2H])([2H])N(Cc1ccc(-c2ccc(OC(F)(F)F)cc2)cc1)[C@H](C)[C@](O)(Cn1cncn1)c1ccc(F)cc1F` here.
4.98

----------
assay: Selectivity ratio, ratio of IC50 for cytotoxicity against human SH-SY5Y cells to MIC80 for antifungal activity against Candida parapsilosis GIM 2.190; format: toxicity, cell-based
Value Kind: selectivity ratio

Report selectivity ratio, nothing else, for this molecule: `[2H]C([2H])([2H])N(Cc1ccc(-c2ccc(OC(F)(F)F)cc2)cc1)[C@H](C)[C@](O)(Cn1cncn1)c1ccc(F)cc1F`
> 100

----------
experiment: Metabolic stability in human liver microsomes assessed as compound remaining measured up to 60 mins by LC-MS/MS analysis; assay type: ADME, Microsome; details: liver microsomes, read-out: Activity
Value Kind: remaining at 1 h (%)
Please give a number only; it is taken to be in %.

Previously resolved entries follow.
Compound | Value Kind | Value Reported
[2H]C([2H])([2H])N(Cc1ccc(-c2ccc(Cl)cc2)nc1)[C@H](C)[C@](O)(Cn1cncn1)c1ccc(F)cc1F | remaining at 1 h | 1.07
[2H]C([2H])([2H])N(Cc1ccc(-c2ccc(C(F)(F)F)cc2)cc1)[C@H](C)[C@](O)(Cn1cncn1)c1ccc(F)cc1F | remaining at 1 h | 29
CN(Cc1ccc(N2CCN(Cc3ccc(F)cc3Br)CC2)cc1)CC(O)(Cn1cncn1)c1ccc(F)cc1F (stereo not given) | remaining at 1 h | 0.936
[2H]C([2H])([2H])N(Cc1ccc(-c2ccc(Cl)c(F)c2)cc1)[C@H](C)[C@](O)(Cn1cncn1)c1ccc(F)cc1F | remaining at 1 h | 4.91

Now examine the next entry.
Item `[2H]C([2H])([2H])N(Cc1ccc(-c2ccc(OC(F)(F)F)cc2)cc1)[C@H](C)[C@](O)(Cn1cncn1)c1ccc(F)cc1F` : provide remaining at 1 h
34.4

----------
test: Selectivity ratio, ratio of IC50 for cytotoxicity against human SH-SY5Y cells to MIC80 for antifungal activity against Candida parapsilosis GIM 2.190; type: toxicity, cell-based
Value Kind: selectivity ratio

Give me measured selectivity ratio, please, for this compound: `[2H]C([2H])([2H])N(Cc1ccc(-c2ccc(OC(F)(F)F)cc2)cc1)[C@H](C)[C@](O)(Cn1cncn1)c1ccc(F)cc1F`
> 100

----------
test system: Candida parapsilosis; assay: Antifungal activity against Candida parapsilosis GIM 2.190 assessed as inhibition of visible growth; type: functional; conditions: Lodderomyces parapsilosis
Value Kind: MIC80 (ng/mL)
Your answer is read as ng/mL, so omit the unit and give the number.

Molecule | Reading Unit | MIC80
CN(Cc1nc(-c2ccc(Cl)cc2)cs1)CC(O)(Cn1cncn1)c1ccc(F)cc1F (stereo not given) | ng/mL | 12
CN(Cc1ccc(-c2ccc(C(F)(F)F)cc2)s1)CC(O)(Cn1cncn1)c1ccc(F)cc1F (stereo not given) | ng/mL | 6
Cc1ccc(-c2ccc(CN(C)CC(O)(Cn3cncn3)c3ccc(F)cc3F)nc2)cc1 (stereo not given) | ng/mL | 100
CN(Cc1ccc(-c2ccc(Cl)cc2)c(F)c1)CC(O)(Cn1cncn1)c1ccc(F)cc1F (stereo not given) | ng/mL | 6

Next:
Name the recorded MIC80 of the item CN(Cc1ccc(-c2ccc(OC(F)(F)F)cc2)nc1)CC(O)(Cn1cncn1)c1ccc(F)cc1F (stereo not given) in your answer.
6

----------
tested on: Candida parapsilosis; assay: Antifungal activity against Candida parapsilosis GIM 2.190 assessed as inhibition of visible growth; format: functional; conditions: Lodderomyces parapsilosis
Value Kind: MIC80 (ng/mL)
Could you give me the number in ng/mL? Just the number is fine.

Compound | Reading Unit | Value Reported
[2H]C([2H])([2H])N(Cc1ccc(-c2ccc(Cl)cc2)cc1)[C@H](C)[C@](O)(Cn1cncn1)c1ccc(F)cc1F | ng/mL | 6
[2H]C([2H])([2H])N(Cc1ccc(-c2ccc(C(F)(F)F)cc2)cc1F)[C@H](C)[C@](O)(Cn1cncn1)c1ccc(F)cc1F | ng/mL | 12
CN(Cc1ccc(-c2ccccc2)cn1)CC(O)(Cn1cncn1)c1ccc(F)cc1F (stereo not drawn) | ng/mL | 25
CN(Cc1ccc(-c2ccc(OC(F)(F)F)cc2)s1)CC(O)(Cn1cncn1)c1ccc(F)cc1F (stereo not drawn) | ng/mL | 6
[2H]C([2H])([2H])N(Cc1ccc(-c2ccc(Cl)cc2)cn1)[C@H](C)[C@](O)(Cn1cncn1)c1ccc(F)cc1F | ng/mL | 6
CN(Cc1ccc(-c2ccc(Cl)cc2)cc1F)CC(O)(Cn1cncn1)c1ccc(F)cc1F (stereo not drawn) | ng/mL | 6
COc1ccc(-c2ccc(CN(C)CC(O)(Cn3cncn3)c3ccc(F)cc3F)nc2)cc1 (stereo not drawn) | ng/mL | 25

Kindly consider the entry below.
State its MIC80: `[2H]C([2H])([2H])N(Cc1ccc(-c2ccc(C(F)(F)F)cc2)cc1)[C@H](C)[C@](O)(Cn1cncn1)c1ccc(F)cc1F`
6

----------
test: AUC (0 to infinity) in Sprague-Dawley rat at 10 mg/kg, po by LC-MS/MS analysis; assay type: ADME, organism-based; conditions: in vivo
Value Kind: AUC(0-inf)

Name the recorded AUC(0-inf) of the item `[2H]C([2H])([2H])N(Cc1ccc(-c2ccc(OC(F)(F)F)cc2)cc1)[C@H](C)[C@](O)(Cn1cncn1)c1ccc(F)cc1F` in your answer.
4830 ng·h/mL

----------
system: Nakaseomyces glabratus; experiment: Antifungal activity against Clinical isolate Candida glabrata assessed as inhibition of visible growth; type: functional
Listed compounds paired with reported MIC80
Give your result in µg/mL as a bare value.

Here's what some known entries look like.
Compound | MIC80, µg/mL
[2H]C([2H])([2H])N(Cc1ccc(-c2ccc(C(F)(F)F)cc2)nc1)[C@H](C)[C@](O)(Cn1cncn1)c1ccc(F)cc1F | 0.012
CN(Cc1ccc(-c2ccc(Cl)cc2)cc1F)CC(O)(Cn1cncn1)c1ccc(F)cc1F (stereo not given) | 0.025
CN(Cc1ccc(-c2ccccc2)cn1)CC(O)(Cn1cncn1)c1ccc(F)cc1F (stereo not given) | 0.8
CN(Cc1nc(-c2ccc(Cl)cc2)cs1)CC(O)(Cn1cncn1)c1ccc(F)cc1F (stereo not given) | 0.4

For the compound CN(Cc1ccc(-c2ccc(C(F)(F)F)cc2)cc1)CC(O)(Cn1cncn1)c1ccc(F)cc1F (stereo not given) , give its measured MIC80 value.
0.025

----------
tested on: Candida parapsilosis; experiment: Antifungal activity against Candida parapsilosis GIM 2.190 assessed as inhibition of visible growth; assay type: functional; settings: Lodderomyces parapsilosis
Readings of MIC80 for the listed compounds
Answer with a number only, understood to be in ng/mL.

Compound | Reading Unit | Value Reported
CN(Cc1ccc(-c2cccc(F)c2)cn1)CC(O)(Cn1cncn1)c1ccc(F)cc1F (stereo not drawn) | ng/mL | 12
[2H]C([2H])([2H])N(Cc1ccc(-c2ccc(Cl)c(F)c2)cc1)[C@H](C)[C@](O)(Cn1cncn1)c1ccc(F)cc1F | ng/mL | 6
OC(CNCc1ccc(-c2ccc(Cl)cc2)cc1)(Cn1cncn1)c1ccc(F)cc1F (stereo not drawn) | ng/mL | 25
CN(Cc1ccc(-c2ccc(Cl)cc2F)cc1)CC(O)(Cn1cncn1)c1ccc(F)cc1F (stereo not drawn) | ng/mL | 6
CN(Cc1ccc(-c2ccc(C(F)(F)F)cc2)o1)CC(O)(Cn1cncn1)c1ccc(F)cc1F (stereo not drawn) | ng/mL | 50
[2H]C([2H])([2H])N(Cc1ccc(-c2ccc(Cl)cc2F)cc1)[C@H](C)[C@](O)(Cn1cncn1)c1ccc(F)cc1F | ng/mL | 6

Give Candida parapsilosis MIC80 for the following compound: [2H]C([2H])([2H])N(Cc1ccc(-c2ccc(Cl)cc2)cc1)CC(O)(Cn1cncn1)c1ccc(F)cc1F (stereo not drawn)
6

Check Candida parapsilosis data and give MIC80 for CN(Cc1ccc(-c2ccc(C(F)(F)F)cc2)cc1)CC(O)(Cn1cncn1)c1ccc(F)cc1F (stereo not drawn) .
6
